Listed compounds paired with reported d(0.9)
Assay: Particle size testing by laser diffraction (Malvern MS2000 laser particle size analyzer, dispersant water)
Assay type: physicochemical
Conditions: maximum particle size, cumulative distribution 90%
The answer should read as a number with its unit following.

Use the examples below as a reference point.
In [3]: df
Out[3]:
                                   compound  test_result
0  CCCCCCOC(=O)c1ccccc1C(=O)c1ccc(N(CC)CC)cc1O [Comparative Example 1]   518.950 µm
1  CCCCCCOC(=O)c1ccccc1C(=O)c1ccc(N(CC)CC)cc1O [Example 5]    43.271 µm
2  CCCCCCOC(=O)c1ccccc1C(=O)c1ccc(N(CC)CC)cc1O [Example 3]    77.626 µm
3  CCCCCCOC(=O)c1ccccc1C(=O)c1ccc(N(CC)CC)cc1O [Example 4]    62.903 µm
4  CCCCCCOC(=O)c1ccccc1C(=O)c1ccc(N(CC)CC)cc1O [Example 1]    57.575 µm

Now examine the next entry.
Ask: Which d(0.9) value is on record for CCCCCCOC(=O)c1ccccc1C(=O)c1ccc(N(CC)CC)cc1O [Example 2] ?
Reply: 51.867 µm

// data source = patent EP4310072A1
